Where do these numbers come from? They come from paper PMC8901636.

method.summary: PK and tissue distribution after single oral administration in Ba/F3-EPOR-JAK2^V617F tumor-bearing mice
Assay type: in vivo
assay.conditions: BALB/c nude, mouse, kidney, oral, 30 mg/kg; single; 8 h; read-out: FM concentration, Kidney
attribute.measured: concentration at 8 h (ng/g)
Response body: numeric value in ng/g, unit text excluded.

Q. Identify the reported concentration at 8 h for the following entry. Cc1cnc(Nc2ccc(N3CCC(N(C)CCO)CC3)c(F)c2)nc1-c1cnn(C(C)C)c1 [FM]
A. 1050

###

method.summary: PK and tissue distribution after single oral administration in Ba/F3-EPOR-JAK2^V617F tumor-bearing mice
Assay type: in vivo
assay.conditions: BALB/c nude, mouse, plasma, oral, 30 mg/kg; single; 4 h; read-out: FM concentration, Plasma
attribute.measured: concentration at 4 h (ng/mL)
Response body: numeric value in ng/mL, unit text excluded.

Q. Identify the reported concentration at 4 h for the following entry. Cc1cnc(Nc2ccc(N3CCC(N(C)CCO)CC3)c(F)c2)nc1-c1cnn(C(C)C)c1 [FM]
A. 248
